assay target: CjIMPDH (Campylobacter jejuni, UniProt Q0P9J4)
Construct: gene guaB; full-length wild type, N-terminal His6 tag, pMCSG7, E. coli; tetramer
assay info: NADH production, A340
Type: biochemical
condition label: read-out: IC50 / 3
measured quantity: pIC50
The read-out pIC50 is expressed as -log10 of concentration in moles per litre.

What pIC50 value was documented for this compound, `Cn1nc(CC(=O)Nc2ccc3oc4c(c3c2)CCCC4)c2ccccc2c1=O` ?
6.77

----------
assay target: CpIMPDH (Cryptosporidium parvum, UniProt Q8T6T2)
Construct: gene 56k.02; recombinant
Sequence (Q8T6T2 whole entry): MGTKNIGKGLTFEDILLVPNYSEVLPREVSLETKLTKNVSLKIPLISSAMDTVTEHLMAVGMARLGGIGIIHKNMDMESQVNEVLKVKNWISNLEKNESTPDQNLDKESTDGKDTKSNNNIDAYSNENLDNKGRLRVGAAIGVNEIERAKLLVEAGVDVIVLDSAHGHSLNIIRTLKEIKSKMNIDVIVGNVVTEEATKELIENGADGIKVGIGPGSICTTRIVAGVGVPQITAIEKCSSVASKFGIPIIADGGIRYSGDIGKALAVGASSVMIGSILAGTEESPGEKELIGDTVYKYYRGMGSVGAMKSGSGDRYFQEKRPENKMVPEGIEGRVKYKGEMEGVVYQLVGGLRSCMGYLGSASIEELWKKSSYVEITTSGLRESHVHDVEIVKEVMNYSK
assay info: NADH production, A340
Type: biochemical
condition label: read-out: IC50 / 6
measured quantity: pIC50
Please express pIC50 as -log10 of the molar concentration.

Param item = `C/C(=N\O)c1cccc(C(C)(C)NC(=O)Nc2ccc(Br)cc2)c1` ; retrieve measured pIC50.
8.10

----------
assay target: CjIMPDH (Campylobacter jejuni, UniProt Q0P9J4)
Construct: gene guaB; full-length wild type, N-terminal His6 tag, pMCSG7, E. coli; tetramer
assay info: NADH production, A340
Type: biochemical
condition label: read-out: IC50 / 1
measured quantity: pIC50
Answer as the number alone; pIC50 is minus log10 of concentration in mol/L.

Look up pIC50 for this molecule: `C[C@@H](Oc1cc[n+]([O-])c2ccccc12)c1cn(-c2ccc(Cl)cc2)nn1`
6.85

----------
assay target: CjIMPDH (Campylobacter jejuni)
Construct: gene guaB; full-length wild type, N-terminal His6 tag, pMCSG7, E. coli; tetramer
Sequence (Q0P9J4 1-485): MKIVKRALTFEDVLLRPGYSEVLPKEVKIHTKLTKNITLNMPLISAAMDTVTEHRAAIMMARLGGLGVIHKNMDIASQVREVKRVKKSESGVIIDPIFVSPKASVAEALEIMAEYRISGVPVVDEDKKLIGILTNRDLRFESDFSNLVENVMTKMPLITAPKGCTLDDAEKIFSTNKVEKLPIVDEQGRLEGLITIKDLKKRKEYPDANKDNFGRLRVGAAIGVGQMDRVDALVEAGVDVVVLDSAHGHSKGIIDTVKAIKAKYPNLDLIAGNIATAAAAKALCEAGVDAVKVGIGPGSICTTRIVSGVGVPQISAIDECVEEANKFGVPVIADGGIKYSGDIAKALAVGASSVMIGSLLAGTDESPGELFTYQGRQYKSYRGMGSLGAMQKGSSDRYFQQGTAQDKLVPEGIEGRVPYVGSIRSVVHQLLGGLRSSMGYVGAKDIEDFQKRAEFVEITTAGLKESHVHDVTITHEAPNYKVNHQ
assay info: NADH production, A340
Assay type: biochemical
condition label: read-out: IC50 / 7
measured quantity: IC50 (nM)
Give a bare numeral; the unit nM is implied.

Consider the compound C[C@H](Oc1cccc2ccccc12)C(=O)Nc1ccc2oc(-c3ccncc3)nc2c1 [compound 7] and give its measured IC50.
13

----------
assay target: CpIMPDH (Cryptosporidium parvum, UniProt Q8T6T2)
Construct: gene 56k.02; recombinant
assay info: NADH production, A340
Assay type: biochemical
condition label: read-out: IC50 / 3
measured quantity: pIC50
pIC50 here is simply -log10 of the concentration when that concentration is written in mol/L.

Give recorded pIC50 with CpIMPDH (Cryptosporidium parvum, UniProt Q8T6T2) for the following compound: `Cn1nc(CC(=O)Nc2ccc3oc4c(c3c2)CCCC4)c2ccccc2c1=O`
7.62

----------
assay target: CjIMPDH (Campylobacter jejuni)
Construct: gene guaB; full-length wild type, N-terminal His6 tag, pMCSG7, E. coli; tetramer
assay info: NADH production, A340
Format: biochemical
condition label: read-out: IC50 / 4
measured quantity: IC50 (nM)
# number only, unit nM dropped from output

Item under review: `C=C(C)c1cccc(C(C)(C)NC(=O)Nc2ccc(Br)cc2)c1` . Reported IC50?
36

----------
assay target: CjIMPDHΔS (Campylobacter jejuni, UniProt Q0P9J4, INS91G/DEL92-195)
Construct: gene guaB
Sequence (Q0P9J4 1-485 INS91G/DEL92-195): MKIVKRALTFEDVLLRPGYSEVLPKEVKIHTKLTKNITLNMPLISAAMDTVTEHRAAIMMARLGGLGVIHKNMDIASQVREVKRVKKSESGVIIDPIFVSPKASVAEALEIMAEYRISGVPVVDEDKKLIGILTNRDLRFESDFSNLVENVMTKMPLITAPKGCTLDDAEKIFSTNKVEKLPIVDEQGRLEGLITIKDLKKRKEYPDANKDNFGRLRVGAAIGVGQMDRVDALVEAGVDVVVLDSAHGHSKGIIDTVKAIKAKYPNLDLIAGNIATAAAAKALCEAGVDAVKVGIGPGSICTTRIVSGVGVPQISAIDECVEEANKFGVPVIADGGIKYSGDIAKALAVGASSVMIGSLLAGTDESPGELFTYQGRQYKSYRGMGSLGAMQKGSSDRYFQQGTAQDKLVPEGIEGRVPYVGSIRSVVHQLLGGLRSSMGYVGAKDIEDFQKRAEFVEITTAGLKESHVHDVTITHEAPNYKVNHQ
assay info: NADH production, A340
Format: biochemical
condition label: pH 8.0, 1 mM IMP, NAD+ about 2.5 x Km, 10 min preincubation, room temperature; read-out: IC50 / 4
measured quantity: IC50 (nM)
Kindly answer with a numeric value in nM, unit omitted.

Param readout = IC50; param system = CjIMPDHΔS (Campylobacter jejuni, UniProt Q0P9J4, INS91G/DEL92-195); param query = C=C(C)c1cccc(C(C)(C)NC(=O)Nc2ccc(Br)cc2)c1 [compound 4] ; response: value
67
